Target: T1, MusCD100-His (mouse, UniProt O09126)
T1 chain: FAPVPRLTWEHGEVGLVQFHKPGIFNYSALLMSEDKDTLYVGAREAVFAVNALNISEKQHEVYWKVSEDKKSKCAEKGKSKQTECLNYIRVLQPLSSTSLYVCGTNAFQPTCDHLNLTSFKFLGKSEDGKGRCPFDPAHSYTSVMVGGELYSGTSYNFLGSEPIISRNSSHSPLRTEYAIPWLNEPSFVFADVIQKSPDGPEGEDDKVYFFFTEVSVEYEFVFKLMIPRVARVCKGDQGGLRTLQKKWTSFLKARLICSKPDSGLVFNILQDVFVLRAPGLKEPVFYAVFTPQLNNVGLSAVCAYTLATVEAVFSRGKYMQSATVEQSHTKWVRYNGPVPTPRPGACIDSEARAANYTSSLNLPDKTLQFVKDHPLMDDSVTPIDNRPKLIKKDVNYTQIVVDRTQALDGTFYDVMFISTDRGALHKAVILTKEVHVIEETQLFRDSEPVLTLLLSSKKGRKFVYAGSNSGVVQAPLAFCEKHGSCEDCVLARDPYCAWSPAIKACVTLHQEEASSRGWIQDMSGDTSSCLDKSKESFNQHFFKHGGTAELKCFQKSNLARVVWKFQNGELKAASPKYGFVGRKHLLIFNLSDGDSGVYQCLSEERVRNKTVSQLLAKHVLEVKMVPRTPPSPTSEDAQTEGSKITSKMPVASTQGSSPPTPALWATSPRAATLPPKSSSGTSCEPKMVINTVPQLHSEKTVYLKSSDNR
Experiment: ELISA
Recorded Endpoint: EC50

Output measured EC50 for this item: H5 (antibody, V domains shown) VH: QLQLQESGPGLVKPPGTLSLTCAVSGGSISSSNWWSWVRQPPGKGLEWIGEIYHSGSTNYNPSLKSRVTISVDTSKNQFSLKLSSVTAADTAVYYCAVYDFWSGSGLDYWGQGTLVTVSS VL: SYVLTQPPSVSVSPGQTASITCSGDKLGDKFASWYQQKPGQSPVLVIYQDRKRPSRIPERFSGSNSGNTATLTITGTQTIDEADYYCQAWDSGTVIFGGGTKLTVL
7.22 ng/mL
